- protocol: Cmax in Kunming mouse plasma at 10 mg/kg, iv administered as single dose measured after 5 to 360 mins by HPLC analysis
- Format: ADME, organism-based
- Parameters: dose 10 mg/kg, time upper 360 min, time lower 5 min, route iv
measurement-type: Cmax (ng/mL)

* O=C1c2c[n+]([O-])c3ccccc3c2C(=O)c2c1c1ccccc1n2Cc1cn([C@@H]2C[C@H](O)[C@@H](CO)O2)nn1 | 27000
* COc1cc([C@@H]2c3cc4c(cc3[C@@H](O[C@@H]3O[C@@H]5CO[C@@H](C)O[C@H]5[C@H](O)[C@H]3O)[C@H]3COC(=O)[C@H]23)OCO4)cc(OC)c1O [ETOPOSIDE] | 17700

* * *

// reported IC50 at 72 h for each item listed
- protocol: Cytotoxicity against human L02 cells measured after 72 hrs by MTT assay
- Assay type: toxicity, cell-based
measurement-type: IC50 at 72 h (µM)

- O=C1c2c[n+]([O-])c3ccccc3c2C(=O)c2c1c1ccccc1n2CCCCn1ccnc1: 0.15
- O=C1c2c[n+]([O-])c3ccccc3c2C(=O)c2c1c1ccccc1n2Cc1cn(CC(O)CO)nn1 (stereo not given): 1.07
- CC1(C)O[C@@H](CO)[C@H](Cn2cc(Cn3c4c(c5ccccc53)C(=O)c3c[n+]([O-])c5ccccc5c3C4=O)nn2)O1: 0.5
- CN(C)CCn1c2c(c3ccccc31)C(=O)c1c[n+]([O-])c3ccccc3c1C2=O: 0.75
- CCCCN1CCN(CCCCn2c3c(c4ccccc42)C(=O)c2c[n+]([O-])c4ccccc4c2C3=O)CC1: 5.69
- CC1(C)OC[C@H](Cn2cc(Cn3c4c(c5ccccc53)C(=O)c3c[n+]([O-])c5ccccc5c3C4=O)nn2)O1: 0.47
- CN(C)CCCCCn1c2c(c3ccccc31)C(=O)c1c[n+]([O-])c3ccccc3c1C2=O: 0.24
- CC[C@@]1(O)C(=O)OCc2c1cc1n(c2=O)Cc2cc3ccccc3nc2-1: 0.14
- CN1CCN(CCCn2c3c(c4ccccc42)C(=O)c2c[n+]([O-])c4ccccc4c2C3=O)CC1: 0.23
- CC1(C)OC[C@@H](Cn2cc(Cn3c4c(c5ccccc53)C(=O)c3c[n+]([O-])c5ccccc5c3C4=O)nn2)O1: 2.9
- CC(=O)OC[C@H]1O[C@@H](n2cc(Cn3c4c(c5ccccc53)C(=O)c3c[n+]([O-])c5ccccc5c3C4=O)nn2)[C@H](OC(C)=O)[C@@H]1OC(C)=O: 0.27
- O=C1c2c[n+]([O-])c3ccccc3c2C(=O)c2c1c1ccccc1n2Cc1cn(C[C@H](O)CO)nn1: 1.13
- COc1cc([C@@H]2c3cc4c(cc3[C@@H](O[C@@H]3O[C@@H]5CO[C@@H](C)O[C@H]5[C@H](O)[C@H]3O)[C@H]3COC(=O)[C@H]23)OCO4)cc(OC)c1O [ETOPOSIDE]: 1.22
- CN(C)CCCCn1c2c(c3ccccc31)C(=O)c1c[n+]([O-])c3ccccc3c1C2=O: 0.3
- CCOC(=O)[C@@H]1OC(C)(C)O[C@H]1Cn1cc(Cn2c3c(c4ccccc42)C(=O)c2c[n+]([O-])c4ccccc4c2C3=O)nn1: 0.84

* * *

- Tested on: A549
- protocol: Cytotoxicity against human A549 cells expressing high level of topoisomerase I/II measured after 72 hrs by MTT assay
- Assay type: functional, cell-based
- measurement-parameters: A549, 72 h
pIC50: −log10 of the molar value.
Each record here notes measured pIC50.
measurement-type: pIC50

• O=C1c2c[n+]([O-])c3ccccc3c2C(=O)c2c1c1ccccc1n2Cc1cn(C[C@@H](O)CO)nn1 = 6.41
• CC(=O)OC[C@H]1O[C@@H](n2cc(Cn3c4c(c5ccccc53)C(=O)c3c[n+]([O-])c5ccccc5c3C4=O)nn2)[C@H](OC(C)=O)[C@@H]1OC(C)=O = 5.94
• O=C1c2c[n+]([O-])c3ccccc3c2C(=O)c2c1c1ccccc1n2CCCCN1CCOCC1 = 7.05
• CN(C)CCCn1c2c(c3ccccc31)C(=O)c1c[n+]([O-])c3ccccc3c1C2=O = 6.51

* * *

- protocol: Cytotoxicity against human HEK293T cells measured after 72 hrs by MTT assay
- Assay type: toxicity, cell-based, HEK-293T
measurement-type: IC50 at 72 h

- O=C1c2c[n+]([O-])c3ccccc3c2C(=O)c2c1c1ccccc1n2Cc1cn([C@@H]2C[C@H](O)[C@@H](CO)O2)nn1: 820 nM
- O=C1c2c[n+]([O-])c3ccccc3c2C(=O)c2c1c1ccccc1n2Cc1cn(C[C@@H](O)CO)nn1: 2030 nM
- CN1CCN(CCCCCCn2c3c(c4ccccc42)C(=O)c2c[n+]([O-])c4ccccc4c2C3=O)CC1: 5800 nM
- COc1cc([C@@H]2c3cc4c(cc3[C@@H](O[C@@H]3O[C@@H]5CO[C@@H](C)O[C@H]5[C@H](O)[C@H]3O)[C@H]3COC(=O)[C@H]23)OCO4)cc(OC)c1O [ETOPOSIDE]: 1390 nM

* * *

IC50 at 72 h values, listed per item
- protocol: Cytotoxicity against human HEK293T cells measured after 72 hrs by MTT assay
- Format: toxicity, cell-based, HEK-293T
measurement-type: IC50 at 72 h (µM)

- O=C1c2c[n+]([O-])c3ccccc3c2C(=O)c2c1c1ccccc1n2Cc1cn([C@H]2C[C@H](O)[C@@H](CO)O2)nn1: 3.6
- CC1(C)OCC(Cn2cc(Cn3c4c(c5ccccc53)C(=O)c3c[n+]([O-])c5ccccc5c3C4=O)nn2)O1 (centres undefined): 5.51
- CC1(C)OC[C@H](Cn2cc(Cn3c4c(c5ccccc53)C(=O)c3c[n+]([O-])c5ccccc5c3C4=O)nn2)O1: 0.1
- O=C1c2c[n+]([O-])c3ccccc3c2C(=O)c2c1c1ccccc1n2CCCCN1CCNCC1: 0.76

* * *

Quick reference for IC50 at 72 h among some molecules
- protocol: Cytotoxicity against human L02 cells measured after 72 hrs by MTT assay
- Type: toxicity, cell-based
measurement-type: IC50 at 72 h

- CC(=O)OC[C@H]1O[C@@H](n2cc(Cn3c4c(c5ccccc53)C(=O)c3c[n+]([O-])c5ccccc5c3C4=O)nn2)[C@H](OC(C)=O)[C@@H](OC(C)=O)[C@@H]1OC(C)=O: 270 nM
- O=C1c2c[n+]([O-])c3ccccc3c2C(=O)c2c1c1ccccc1n2CCN1CCCCC1: 1050 nM
- O=C1c2c[n+]([O-])c3ccccc3c2C(=O)c2c1c1ccccc1n2CCCCCN1CCOCC1: 330 nM

Taken from ChEMBL document CHEMBL5154929.
